Data credit: paper PMC9866191

Tested on: SW-620
Test: NCI-60 one-dose screen
Type: cell-based
Details: Homo sapiens; SW-620, Colon Cancer panel; single dose 10^−5 M; read-out: Growth inhibition %
For each entry below, report its inhibition at 10 µM value.
Numbers only, in %.

Dear colleague, could you please provide inhibition at 10 µM for the compounds listed below?
1. COc1ccc2nc3ccccc3c(NCc3ccc(C)cc3)c2c1 [Compound 26]
2. COc1ccc2nc3ccccc3c(NCc3ccc(Cl)cc3)c2c1 [Compound 29]
3. Cc1ccccc1CNc1c2ccccc2nc2ccccc12 [Compound 2, Acridin-9-yl-(2-methylbenzyl)-amine]
4. Clc1cccc(CNc2c3ccccc3nc3ccccc23)c1 [Compound 12, Acridin-9-yl-(3-chlorobenzyl)-amine]
5. COc1ccc(CNc2c3ccccc3nc3ccccc23)c(OC)c1 [Compound 17, Acridin-9-yl-(2,4-dimethoxybenzyl)-amine]
6. Clc1ccccc1CNc1c2ccccc2nc2ccccc12 [Compound 11, Acridin-9-yl-(2-chlorobenzyl)-amine]

81.5
87.2
86.2
88
79.3
90.4

Dear colleague, could you please provide inhibition at 10 µM for the compounds listed below?
1. Fc1ccccc1CNc1c2ccccc2nc2ccccc12 [Compound 8, Acridin-9-yl-(2-fluorobenzyl)-amine]
2. c1coc(CNc2c3ccccc3nc3ccccc23)c1 [Compound 14, Acridin-9-yl-furan-2-ylmethyl-amine]
3. COc1ccc(CNc2c3ccccc3nc3ccccc23)cc1OC [Compound 18, Acridin-9-yl-(3,4-dimethoxybenzyl)-amine]
4. Cc1cccc(CNc2c3ccccc3nc3ccccc23)c1 [Compound 3, Acridin-9-yl-(3-methylbenzyl)-amine]
5. COc1ccc(CNc2c3ccccc3nc3ccc(OC)cc23)cc1 [Compound 27]
6. Cc1ccc2nc3ccccc3c(NCc3ccc(Cl)cc3)c2c1 [Compound 31]
7. COc1cccc(CNc2c3ccccc3nc3ccccc23)c1OC [Compound 16, Acridin-9-yl-(2,3-dimethoxybenzyl)-amine]
8. c1ccc(CCNc2c3ccccc3nc3ccccc23)cc1 [Compound 23, Acridin-9-yl-phenethyl-amine]

[71.5, 57.7, 84, 82.8, 84.2, 68, 74.6, 71.7]

Dear colleague, could you please provide inhibition at 10 µM for the compounds listed below?
1. Clc1ccc(CNc2c3ccccc3nc3ccccc23)cc1 [Compound 13, Acridin-9-yl-(4-chlorobenzyl)-amine]
2. COc1ccccc1CNc1c2ccccc2nc2ccccc12 [Compound 5, Acridin-9-yl-(2-methoxybenzyl)-amine]
3. COc1ccc2nc3ccccc3c(NCc3ccccc3)c2c1 [Compound 25, Benzyl-(2-methoxyacridin-9-yl)-amine]
4. Fc1ccc(CNc2c3ccccc3nc3ccccc23)cc1 [Compound 10, Acridin-9-yl-(4-fluorobenzyl)-amine]
5. Fc1ccc(CNc2c3ccccc3nc3ccccc23)c(F)c1 [Compound 21, Acridin-9-yl-(2,4-difluorobenzyl)-amine]
6. COc1cccc(CNc2c3ccccc3nc3ccccc23)c1 [Compound 6, Acridin-9-yl-(3-methoxybenzyl)-amine]

1: 69; 2: 77.9; 3: 80.5; 4: 77.2; 5: 70.2; 6: 74.5

Dear colleague, could you please provide inhibition at 10 µM for the compounds listed below?
1. Fc1ccc(CNc2c3ccccc3nc3ccccc23)cc1F [Compound 22, Acridin-9-yl-(3,4-difluorobenzyl)-amine]
2. Cc1ccc(CNc2c3ccccc3nc3ccccc23)cc1 [Compound 4, Acridin-9-yl-(4-methylbenzyl)-amine]
3. Fc1cccc(CNc2c3ccccc3nc3ccccc23)c1F [Compound 20, Acridin-9-yl-(2,3-difluorobenzyl)-amine]
4. COc1ccc2nc3ccccc3c(NCc3ccc(F)cc3)c2c1 [Compound 28]

1: 76.3; 2: 79.8; 3: 58.6; 4: 85.3
